Target: panel of 255 wild-type kinases (Homo sapiens, UniProt Q7KZI7)
Sequence (Q7KZI7 whole entry): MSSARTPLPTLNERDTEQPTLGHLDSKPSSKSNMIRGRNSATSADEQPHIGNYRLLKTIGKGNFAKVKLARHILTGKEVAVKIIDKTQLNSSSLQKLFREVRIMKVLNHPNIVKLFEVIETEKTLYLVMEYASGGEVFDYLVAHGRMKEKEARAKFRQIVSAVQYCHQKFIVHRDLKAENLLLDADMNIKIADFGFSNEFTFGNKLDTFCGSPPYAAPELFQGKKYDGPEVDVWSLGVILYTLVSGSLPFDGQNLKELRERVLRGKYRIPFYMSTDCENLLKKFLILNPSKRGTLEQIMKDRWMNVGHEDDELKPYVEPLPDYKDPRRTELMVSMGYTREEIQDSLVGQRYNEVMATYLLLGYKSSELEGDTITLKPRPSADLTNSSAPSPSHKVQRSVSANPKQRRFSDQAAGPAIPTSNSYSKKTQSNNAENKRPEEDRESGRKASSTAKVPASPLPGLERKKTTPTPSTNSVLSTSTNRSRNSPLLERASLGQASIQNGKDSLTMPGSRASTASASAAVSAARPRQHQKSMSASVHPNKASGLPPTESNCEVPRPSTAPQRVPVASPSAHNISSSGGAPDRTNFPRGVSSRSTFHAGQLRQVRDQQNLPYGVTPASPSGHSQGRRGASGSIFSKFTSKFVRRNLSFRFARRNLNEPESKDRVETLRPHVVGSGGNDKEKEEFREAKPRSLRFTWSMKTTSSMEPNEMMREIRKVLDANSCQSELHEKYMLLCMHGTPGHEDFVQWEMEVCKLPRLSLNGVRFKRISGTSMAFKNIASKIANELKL
Test: Kinase panel profiling at 1 µmol/L (MSA or IMAP), percentage inhibition
Format: biochemical
Details: MARK2; 1 µmol/L single concentration; read-out: %-inhibition, MARK2
readout-label: inhibition at 1 µM (%)
The answer is to be given in %; state only the numeric part.

input: Give the measured inhibition at 1 µM of COC(=O)N[C@@H](C)CNc1nccc(-c2cn(C(C)C)nc2-c2cc(Cl)cc(NS(C)(=O)=O)c2F)n1 .
output: 5.68

input: Give the measured inhibition at 1 µM of Cn1cc(-c2cc3c(N4CCN(c5ncc([C@@](C)(N)c6ccc(F)cc6)cn5)CC4)ncnn3c2)cn1 .
output: -12

input: Give the measured inhibition at 1 µM of Cc1cc(Nc2ncnc3ccc(NC4=NC(C)(C)CO4)cc23)ccc1Oc1ccn2ncnc2c1 .
output: -12

input: Give the measured inhibition at 1 µM of COc1ccc(CN2C3CC2CN(c2ccc(-c4cc(OCC(C)(C)O)cn5ncc(C#N)c45)cn2)C3)cn1 .
output: 26

input: Give the measured inhibition at 1 µM of Cc1nc(NC(=O)N2CCC[C@H]2C(N)=O)sc1-c1ccnc(C(C)(C)C(F)(F)F)c1 .
output: -0.36

input: Give the measured inhibition at 1 µM of CCc1nc(C(N)=O)c(Nc2ccc(N3CCC(N4CCN(C)CC4)CC3)c(OC)c2)nc1NC1CCOCC1 .
output: 43

input: Give the measured inhibition at 1 µM of C[C@H](Nc1ncnc2nc[nH]c12)c1cc2cccc(Cl)c2c(=O)n1-c1ccccc1 .
output: -2.13

input: Give the measured inhibition at 1 µM of O=C(Nc1cnn2ccc(N3CCC[C@@H]3c3cc(F)ccc3F)nc12)N1CC[C@H](O)C1 .
output: -19

input: Give the measured inhibition at 1 µM of Cn1cnc2c(F)c(Nc3ccc(Br)cc3Cl)c(C(=O)NOCCO)cc21 .
output: -14

input: Give the measured inhibition at 1 µM of COc1cc2ncnc(Nc3ccc(F)c(Cl)c3)c2cc1NC(=O)/C=C/CN1CCCCC1 .
output: -0.433

input: Give the measured inhibition at 1 µM of CN1CCN(c2ccc(C(=O)Nc3n[nH]c4ccc(Cc5cc(F)cc(F)c5)cc34)c(NC3CCOCC3)c2)CC1 .
output: 9

input: Give the measured inhibition at 1 µM of CCn1c(=O)c(-c2cc(NC(=O)Nc3ccccc3)c(F)cc2Br)cc2cnc(NC)cc21 .
output: -2.22

input: Give the measured inhibition at 1 µM of C=CC(=O)N1CCC([C@@H]2CCNc3c(C(N)=O)c(-c4ccc(Oc5ccccc5)cc4)nn32)CC1 .
output: -21

input: Give the measured inhibition at 1 µM of CO[C@]1(C(=O)N[C@@H](C)c2ccc(-n3cc(F)cn3)nc2)CC[C@H](c2nc(C)cc(Nc3cc(C)[nH]n3)n2)CC1 .
output: -15

input: Give the measured inhibition at 1 µM of CCN1C(=O)N(c2c(F)c(OC)cc(OC)c2F)Cc2cnc3[nH]c(CN4CCOCC4)cc3c21 .
output: 50

input: Give the measured inhibition at 1 µM of C[C@H]1Oc2cc(cnc2N)-c2c(nn(C)c2C#N)CN(C)C(=O)c2ccc(F)cc21 .
output: 11

====

System: 134 cancer cell lines
Assay: Cell viability assay (ATPlite, 72 hours), IC50 on cancer cell line panel
Conditions: Homo sapiens, SU-DHL-6, read-out: IC50 in cell proliferation assay, cell line SU-DHL-6
readout-label: IC50

input: Give the measured IC50 of CCN1CCN(c2ccc(Nc3cc(N(C)C(=O)Nc4c(Cl)c(OC)cc(OC)c4Cl)ncn3)cc2)CC1 .
output: > 3.16 µM

input: Give the measured IC50 of O=C(Nc1cnn2ccc(N3CCC[C@@H]3c3cc(F)ccc3F)nc12)N1CC[C@H](O)C1 .
output: > 31.6 µM

input: Give the measured IC50 of Cn1cnc2c(F)c(Nc3ccc(Br)cc3Cl)c(C(=O)NOCCO)cc21 .
output: > 31.6 µM

====

Provide the recorded inhibition at 1 µM for the entries that follow.
Target: panel of 255 wild-type kinases (Homo sapiens)
Test: Kinase panel profiling at 1 µmol/L (MSA or IMAP), percentage inhibition
Type: biochemical
Details: kinase HIPK2; 1 µmol/L single concentration; read-out: %-inhibition at 1 µmol/L, HIPK2
The answer is to be given in %; state only the numeric part.

input: Give the measured inhibition at 1 µM of C[C@H]1Oc2cc(cnc2N)-c2c(nn(C)c2C#N)CN(C)C(=O)c2ccc(F)cc21 .
output: -2

input: Give the measured inhibition at 1 µM of C=CC(=O)N1CCC([C@@H]2CCNc3c(C(N)=O)c(-c4ccc(Oc5ccccc5)cc4)nn32)CC1 .
output: -0.321

input: Give the measured inhibition at 1 µM of CCN1C(=O)N(c2c(F)c(OC)cc(OC)c2F)Cc2cnc3[nH]c(CN4CCOCC4)cc3c21 .
output: 2.55

input: Give the measured inhibition at 1 µM of O=C(Nc1cnn2ccc(N3CCC[C@@H]3c3cc(F)ccc3F)nc12)N1CC[C@H](O)C1 .
output: -0.39

input: Give the measured inhibition at 1 µM of FC(F)(F)c1ccc(CNc2ccc(Cc3c[nH]c4ncc(Cl)cc34)cn2)cn1 .
output: 4.6

input: Give the measured inhibition at 1 µM of Cn1cnc2c(F)c(Nc3ccc(Br)cc3Cl)c(C(=O)NOCCO)cc21 .
output: 2.71

input: Give the measured inhibition at 1 µM of CO[C@]1(C(=O)N[C@@H](C)c2ccc(-n3cc(F)cn3)nc2)CC[C@H](c2nc(C)cc(Nc3cc(C)[nH]n3)n2)CC1 .
output: 11

====

Target: panel of 255 wild-type kinases (Homo sapiens, UniProt Q9NRA0)
Sequence (Q9NRA0 whole entry): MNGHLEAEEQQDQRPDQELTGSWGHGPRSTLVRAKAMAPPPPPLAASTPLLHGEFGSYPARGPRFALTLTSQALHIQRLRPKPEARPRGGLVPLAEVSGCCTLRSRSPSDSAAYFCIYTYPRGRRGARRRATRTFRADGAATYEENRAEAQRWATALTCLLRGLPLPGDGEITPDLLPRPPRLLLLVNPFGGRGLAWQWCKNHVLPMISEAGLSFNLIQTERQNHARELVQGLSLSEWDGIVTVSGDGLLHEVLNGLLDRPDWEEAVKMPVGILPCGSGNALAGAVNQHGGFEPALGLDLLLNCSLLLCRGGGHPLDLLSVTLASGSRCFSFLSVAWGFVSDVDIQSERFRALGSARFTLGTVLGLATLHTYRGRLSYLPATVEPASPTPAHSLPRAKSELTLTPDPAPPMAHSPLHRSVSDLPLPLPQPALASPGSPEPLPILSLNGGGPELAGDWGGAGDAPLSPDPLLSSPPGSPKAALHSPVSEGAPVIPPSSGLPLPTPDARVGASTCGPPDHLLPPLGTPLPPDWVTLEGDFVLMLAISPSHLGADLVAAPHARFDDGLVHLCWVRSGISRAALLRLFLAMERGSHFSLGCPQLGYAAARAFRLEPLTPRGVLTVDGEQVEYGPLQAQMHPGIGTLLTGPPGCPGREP
Assay: Kinase panel profiling at 1 µmol/L (MSA or IMAP), percentage inhibition
Assay type: biochemical
Settings: kinase SPHK2; 1 µmol/L single concentration; read-out: %-inhibition at 1 µmol/L, SPHK2
Provide the recorded inhibition at 1 µM for the entries that follow.
The answer is to be given in %; state only the numeric part.

input: Give the measured inhibition at 1 µM of CCn1c(=O)c(-c2cc(NC(=O)Nc3ccccc3)c(F)cc2Br)cc2cnc(NC)cc21 .
output: -10

input: Give the measured inhibition at 1 µM of C[C@H]1Oc2cc(cnc2N)-c2c(nn(C)c2C#N)CN(C)C(=O)c2ccc(F)cc21 .
output: 10

input: Give the measured inhibition at 1 µM of Cc1cc(Nc2ncnc3ccc(NC4=NC(C)(C)CO4)cc23)ccc1Oc1ccn2ncnc2c1 .
output: 0.368

input: Give the measured inhibition at 1 µM of Cn1cnc2c(F)c(Nc3ccc(Br)cc3F)c(C(=O)NOCCO)cc21 .
output: -7.55

input: Give the measured inhibition at 1 µM of C[C@H](Nc1ncnc2nc[nH]c12)c1cc2cccc(Cl)c2c(=O)n1-c1ccccc1 .
output: 11

input: Give the measured inhibition at 1 µM of Cc1nc(NC(=O)N2CCC[C@H]2C(N)=O)sc1-c1ccnc(C(C)(C)C(F)(F)F)c1 .
output: 6.5

input: Give the measured inhibition at 1 µM of CCN1C(=O)N(c2c(F)c(OC)cc(OC)c2F)Cc2cnc3[nH]c(CN4CCOCC4)cc3c21 .
output: -5.31

input: Give the measured inhibition at 1 µM of COc1ccc(CN2C3CC2CN(c2ccc(-c4cc(OCC(C)(C)O)cn5ncc(C#N)c45)cn2)C3)cn1 .
output: -3.75

input: Give the measured inhibition at 1 µM of O=C(Nc1cnn2ccc(N3CCC[C@@H]3c3cc(F)ccc3F)nc12)N1CC[C@H](O)C1 .
output: -1.56

input: Give the measured inhibition at 1 µM of COC(=O)N[C@@H](C)CNc1nccc(-c2cn(C(C)C)nc2-c2cc(Cl)cc(NS(C)(=O)=O)c2F)n1 .
output: -12

====

Target: panel of 255 wild-type kinases (Homo sapiens, UniProt P22455)
Sequence (P22455 22-802): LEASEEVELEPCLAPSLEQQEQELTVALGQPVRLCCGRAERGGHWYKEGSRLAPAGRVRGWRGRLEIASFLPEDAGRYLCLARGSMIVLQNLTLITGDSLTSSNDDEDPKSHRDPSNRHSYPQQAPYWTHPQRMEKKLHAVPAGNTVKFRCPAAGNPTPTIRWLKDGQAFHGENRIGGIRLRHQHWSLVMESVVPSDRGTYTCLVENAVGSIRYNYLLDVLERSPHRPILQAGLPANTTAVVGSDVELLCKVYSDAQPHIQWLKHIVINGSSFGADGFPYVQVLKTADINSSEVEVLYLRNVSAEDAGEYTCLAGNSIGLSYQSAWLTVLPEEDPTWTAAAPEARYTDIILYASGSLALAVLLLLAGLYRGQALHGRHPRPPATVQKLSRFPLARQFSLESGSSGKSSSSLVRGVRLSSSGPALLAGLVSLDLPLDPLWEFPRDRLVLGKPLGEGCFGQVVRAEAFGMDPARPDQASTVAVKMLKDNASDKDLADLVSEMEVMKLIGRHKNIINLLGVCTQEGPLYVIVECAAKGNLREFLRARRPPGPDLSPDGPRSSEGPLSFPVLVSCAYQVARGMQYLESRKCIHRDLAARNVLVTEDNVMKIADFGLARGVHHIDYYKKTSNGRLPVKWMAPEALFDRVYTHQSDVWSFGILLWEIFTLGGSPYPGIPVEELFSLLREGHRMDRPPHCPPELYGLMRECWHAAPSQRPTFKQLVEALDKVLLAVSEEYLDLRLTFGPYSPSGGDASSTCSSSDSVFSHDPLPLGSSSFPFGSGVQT
Assay: Kinase panel profiling at 1 µmol/L (MSA or IMAP), percentage inhibition
Format: biochemical
Details: kinase FGFR4; 1 µmol/L single concentration; read-out: %-inhibition at 1 µmol/L, FGFR4
readout-label: inhibition at 1 µM (%)
The answer is to be given in %; state only the numeric part.

input: Give the measured inhibition at 1 µM of Cc1nc(NC(=O)N2CCC[C@H]2C(N)=O)sc1-c1ccnc(C(C)(C)C(F)(F)F)c1 [alpelisib] .
output: 9

input: Give the measured inhibition at 1 µM of CCn1c(=O)c(-c2cc(NC(=O)Nc3ccccc3)c(F)cc2Br)cc2cnc(NC)cc21 [ripretinib] .
output: 11

input: Give the measured inhibition at 1 µM of Cc1cc(Nc2ncnc3ccc(NC4=NC(C)(C)CO4)cc23)ccc1Oc1ccn2ncnc2c1 [tucatinib] .
output: 4

input: Give the measured inhibition at 1 µM of COc1ccc(CN2C3CC2CN(c2ccc(-c4cc(OCC(C)(C)O)cn5ncc(C#N)c45)cn2)C3)cn1 [selpercatinib] .
output: 84

input: Give the measured inhibition at 1 µM of O=C(Nc1cnn2ccc(N3CCC[C@@H]3c3cc(F)ccc3F)nc12)N1CC[C@H](O)C1 [larotrectinib] .
output: 6

input: Give the measured inhibition at 1 µM of Cn1cnc2c(F)c(Nc3ccc(Br)cc3F)c(C(=O)NOCCO)cc21 [binimetinib] .
output: 4.66

input: Give the measured inhibition at 1 µM of Cn1cnc2c(F)c(Nc3ccc(Br)cc3Cl)c(C(=O)NOCCO)cc21 [selumetinib] .
output: 6.37

input: Give the measured inhibition at 1 µM of COc1cc2ncnc(Nc3ccc(F)c(Cl)c3)c2cc1NC(=O)/C=C/CN1CCCCC1 [dacomitinib] .
output: -4.42

input: Give the measured inhibition at 1 µM of COC(=O)N[C@@H](C)CNc1nccc(-c2cn(C(C)C)nc2-c2cc(Cl)cc(NS(C)(=O)=O)c2F)n1 [encorafenib] .
output: 4.23

input: Give the measured inhibition at 1 µM of CCc1nc(C(N)=O)c(Nc2ccc(N3CCC(N4CCN(C)CC4)CC3)c(OC)c2)nc1NC1CCOCC1 [gilteritinib] .
output: 15

input: Give the measured inhibition at 1 µM of C=CC(=O)N1CCC([C@@H]2CCNc3c(C(N)=O)c(-c4ccc(Oc5ccccc5)cc4)nn32)CC1 [zanubrutinib] .
output: 7.51

input: Give the measured inhibition at 1 µM of CCN1C(=O)N(c2c(F)c(OC)cc(OC)c2F)Cc2cnc3[nH]c(CN4CCOCC4)cc3c21 [pemigatinib] .
output: 100
